biological target: UniProt P25779; test: Inhibition of Trypanosoma cruzi cruzipain at 100 uM
Sequence (P25779 123-467 limits assumed): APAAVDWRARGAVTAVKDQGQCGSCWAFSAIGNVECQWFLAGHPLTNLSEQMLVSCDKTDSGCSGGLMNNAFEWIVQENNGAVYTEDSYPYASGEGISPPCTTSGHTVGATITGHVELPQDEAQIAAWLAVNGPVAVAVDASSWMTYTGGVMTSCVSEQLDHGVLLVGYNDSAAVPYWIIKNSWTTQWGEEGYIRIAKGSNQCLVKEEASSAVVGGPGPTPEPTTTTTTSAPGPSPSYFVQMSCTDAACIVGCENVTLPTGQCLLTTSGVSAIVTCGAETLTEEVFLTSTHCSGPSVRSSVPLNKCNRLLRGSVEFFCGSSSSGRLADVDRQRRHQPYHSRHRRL
Assay Endpoint: inhibition (%)
One number for each entry, in %.

                                   compound  endpoint_result
0  O=S(=O)(/C=C\c1ccc2no[n+]([O-])c2c1)c1ccc(F)cc1                0
1  COc1ccc(C(=O)/C=C/c2ccc3no[n+]([O-])c3c2)cc1 (stereo in doubt; 11)               13
2  O=C(/C=C/c1ccc2no[n+]([O-])c2c1)c1ccccc1                0

Switching to the query record.
Q: # lookup: inhibition of [O-][n+]1onc2ccc(/C=C\Sc3ccccc3)cc21
Ans: 30
